- assay_details: ATG_VDRE_CIS: Attagene CIS-FACTORIAL HepG2 Assay for human Vitamin D Receptor Element (VDRE) (AID 2282968)
- test_parameters: HepG2 VDRE cis-reporter transcription, actives raise or lower the signal
The source made the active and inactive calls. How the source made its calls: active means hit-call score of the fitted dose curve at least 0.9, where 1 is the maximum; inactive means score below 0.9.
Would you mind answering with one of these outcomes? label 1 (active), label 0 (inactive)

For this compound, state the assay outcome: FC(F)(F)C(F)(F)CNCC(F)(F)C(F)(F)F
label 0

Please give the result for C=CC(F)(F)C(F)(F)C(F)(F)C(F)(F)C(F)(F)C(F)(F)C(F)(F)C(F)(F)F too.
label 0

Please give the result for FC(F)(F)C(F)(F)C(F)(F)C(F)(F)C(F)(F)C(F)(F)C(F)(F)I too.
label 0

Please give the result for O=C(O)C(F)(F)C(F)(F)C(F)(F)C(F)(F)C(F)(F)C(F)(F)C(F)(F)C(F)(F)C(F)(F)C(F)F too.
label 0

Please give the result for O=C(CC(=O)C(F)(F)C(F)(F)F)C(F)(F)F too.
label 0

Please give the result for Oc1ccc(Nc2ccccc2)cc1 too.
label 1

Please give the result for Nc1ccc(S(=O)(=O)Nc2nccs2)cc1 too.
label 0

Please give the result for COC(=O)CCC(F)(F)C(F)(F)C(F)(F)C(F)(F)F too.
label 0

Please give the result for CCCCCCCCC(F)(F)C(F)(F)C(F)(F)C(F)(F)C(F)(F)C(F)(F)F too.
label 0

Please give the result for OCC(F)(F)C(F)(F)C(F)(F)C(F)(F)C(F)(F)C(F)F too.
label 0

Please give the result for CC/C=C\CCOC(C)=O too.
label 0

Please give the result for CCCCCCOC(=O)c1ccccc1 too.
label 0

Please give the result for CCCCOCCOCCOC(=O)CCCCC(=O)OCCOCCOCCCC too.
label 0

Please give the result for FC(F)(F)C(F)(F)C(F)(F)C(F)(F)C(F)(F)C(F)(F)C(F)(F)C(F)(F)CCS too.
label 0

Please give the result for FC(F)(F)C(F)(F)C(F)(F)C(F)(F)CCI too.
label 0

Please give the result for COC(OC(C)=O)c1ccccc1 (centres undefined) too.
label 0

Please give the result for O=C(O)C(F)(F)C(F)(F)C(F)(F)C(F)(F)C(F)(F)C(F)(F)C(F)(F)C(F)(F)C(F)(F)C(F)(F)C(F)(F)C(F)(F)C(F)(F)F too.
label 0

Please give the result for CCN(CC)c1ccc2c(C)cc(=O)oc2c1 too.
label 1

Please give the result for CCCCCCCOC(=O)c1ccccc1C(=O)OCCCCCCC too.
label 0

Please give the result for FC(F)(I)C(F)(F)C(F)(F)C(F)(F)I too.
label 0

Please give the result for C=CC/C=C/C/C=C/C/C=C/C too.
label 0

Please give the result for FC(F)(F)C(F)(F)C(F)(F)C(F)(F)C(F)(F)C(F)(F)CCS too.
label 0

Please give the result for O=P(O)(O)OCCC(F)(F)C(F)(F)C(F)(F)C(F)(F)C(F)(F)C(F)(F)F too.
label 0

Please give the result for Nc1ccc(Oc2cccc(Oc3ccc(N)cc3)c2)cc1 too.
label 0

Please give the result for CCCCNc1ccccc1 too.
label 0

Please give the result for Cc1cc(C)cc(O)c1 too.
label 0

Please give the result for O=C(O)C(F)(F)C(F)(F)C(F)(F)C(F)(F)C(F)(F)C(F)(F)C(F)(F)C(F)(F)C(F)(F)C(F)(F)C(F)(F)C(F)(F)F too.
label 0

Please give the result for CCC(=O)OCCc1ccccc1 too.
label 0

Please give the result for CCCCCCS too.
label 0

Please give the result for FC(F)(F)C(F)(F)C(F)(F)C(F)(F)C(F)(F)C(F)(F)C(F)(F)C(F)(F)F too.
label 0

Please give the result for c1ccc(B(c2ccccc2)c2ccccc2)cc1 too.
label 1

Please give the result for O=C(O)C(F)(OC(F)(F)C(F)(OC(F)(F)C(F)(F)C(F)(F)F)C(F)(F)F)C(F)(F)F (centres undefined) too.
label 0

Please give the result for CCCCCC=O too.
label 0

Please give the result for FC(F)(F)C(F)(F)C(F)(F)C(F)(F)C(F)(F)C(F)(F)C(F)(F)Br too.
label 0

Please give the result for C#C[C@]1(O)CC[C@H]2[C@@H]3CCc4cc(OC)ccc4[C@H]3CC[C@@]21C too.
label 1

Please give the result for N=C(N)C(F)(F)C(F)(F)C(F)(F)C(F)(F)C(F)(F)C(F)(F)C(F)(F)F too.
label 0

Please give the result for O=C(C=Cc1ccccc1)OCC=Cc1ccccc1 too.
label 0

Please give the result for C1COCCN1 too.
label 0

Please give the result for CNC(=S)NC too.
label 0

Please give the result for OCC(F)(F)C(F)(F)C(F)(F)F too.
label 0

Please give the result for C=C(C)C(=O)OCCC(F)(F)C(F)(F)C(F)(F)C(F)(F)C(F)(C(F)(F)F)C(F)(F)F too.
label 0

Please give the result for O=S(=O)(O)C(F)(F)C(F)(F)C(F)(F)C(F)(F)C(F)(F)C(F)(F)C(F)(F)F too.
label 0

Please give the result for CC(=O)Nc1ccc(N=Nc2cc(C)ccc2O)cc1 too.
label 1

Please give the result for CCCCCCOC(=O)c1ccccc1O too.
label 0

Please give the result for CC(C)=CCCC(C)CCOC(=O)C(C)C (centres undefined) too.
label 0

Please give the result for FC(F)(F)C(F)(F)C(F)(F)CI too.
label 0

Please give the result for Nc1ccc([N+](=O)[O-])cc1O too.
label 0

Please give the result for O=C(O)C(F)(F)C(F)(F)OC(F)(F)F too.
label 0

Please give the result for CCCCCCCCCCCCCCCC[N+](C)(C)Cc1ccccc1 too.
label 0
